# target system: Human PTP1B catalytic domain (1-300) (Homo sapiens, UniProt P18031)
# Sequence (P18031 1-300): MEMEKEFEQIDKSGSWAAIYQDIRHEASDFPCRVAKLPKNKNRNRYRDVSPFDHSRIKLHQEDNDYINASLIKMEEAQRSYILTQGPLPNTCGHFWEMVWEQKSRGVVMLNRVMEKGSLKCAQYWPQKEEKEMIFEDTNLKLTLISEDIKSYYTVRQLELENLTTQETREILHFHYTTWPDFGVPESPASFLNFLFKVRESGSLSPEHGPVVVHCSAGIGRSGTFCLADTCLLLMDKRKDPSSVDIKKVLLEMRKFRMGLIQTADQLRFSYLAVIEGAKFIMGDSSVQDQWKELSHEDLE
property name: IC50 (µM)
Quick reminder: number only, in µM, skip the unit.

compound | IC50 [µM]
O=C(Cc1ccc(Cl)cc1)Nc1ccc(C(=O)Nc2cccc(O)c2)cc1 [SBI-6727] | 57

Q) Return IC50 for the following compound: Nc1ccc(NCC2CCCO2)c(C(=O)O)c1 (stereo not drawn) [SBI-8929]
A) 20
